system: SARS-CoV-2 Spike protein containing PPs, entry into HEK293-ACE2 cells; experiment: microbe, parasite or virus in culture; type: cell-based; settings: PP entry, HEK293-ACE2, 48 h; mean ± SD of two independent experiments
Think of -80% as a floor: if efficacy stands on it or above, it is yes (1); beneath it, no (0).

The following compounds have reported results that may help.
compound	tested.system	cat
COc1ccc(C(CNC(=O)c2ccc3ccccc3n2)N2CCCC2)cc1 (centres unmarked) [NCGC00622469]	SARS-CoV-2 Spike protein containing PPs, entry into HEK293-ACE2 cells	yes (1)
N=c1ccn(C2OC(COP(=O)(O)O)C(O)C2O)c(=O)[nH]1 (centres unmarked) [NCGC00014029]	SARS-CoV-2 Spike protein containing PPs, entry into HEK293-ACE2 cells	yes (1)
O=C(Nc1nc(-c2ccc(F)cc2)cs1)c1c(F)cccc1F [NCGC00633127]	SARS-CoV-2 Spike protein containing PPs, entry into HEK293-ACE2 cells	yes (1)
COc1ccc(-c2nc3ccccc3n2Cc2ccccc2)cc1COc1ccc(NC(C)=O)cc1 [NCGC00166392]	SARS-CoV-2 Spike protein containing PPs, entry into HEK293-ACE2 cells	no (0)

Here is another compound to look at.
Tell me whether efficacy is at least -80% here: COc1ccc(-c2csc3ncnc(N(C)CCO)c23)cc1 [NCGC00608516] no (0)
